pKi: −log10 of the molar value.
pKi for Carbonic anhydrase 4 (Homo sapiens) - collated from the literature.
observable: pKi

> print(dat)
                                        smi  censoringsign  assayvalue
1  NS(=O)(=O)c1ccc(NC(=O)/C(Cl)=N/Nc2ccc(Br)cc2)cc1              <        5.00
2    NS(=O)(=O)c1ccc(OCCCCO[N+](=O)[O-])cc1              =        7.12
3  CC(=O)OCc1c(Br)c(Br)c(OC(C)=O)c(OC(C)=O)c1Br              =        3.99
4  O=C1C=CC[C@H](C[C@@H](O)CCc2cc(Br)c(O)cc2Br)O1              =        4.86
5  CCCCCCN(CCCCCC)CC(=O)N(CCC(=O)O)CCc1ccc(S(N)(=O)=O)cc1              =        7.34

---

pKi: −log10 of the molar value.
pKi for Carbonic anhydrase 4 (Homo sapiens) - collated from the literature.
observable: pKi

> print(dat)
                                         smi  observable  censoringsign  assayvalue
 1  CCCCCCN(CCCCCC)CC(=O)N(CCc1ccc(S(N)(=O)=O)cc1)Cc1ccccc1         pKi              <        5.00
 2                     Nc1cccc(S(N)(=O)=O)c1         pKi              =        5.11
 3  NS(=O)(=O)c1ccc(NC(=O)/C(Cl)=N/Nc2ccc(F)cc2)cc1         pKi              =        5.13
 4  CCCCCCN(CCCCCC)CCC(=O)N(CCc1ccc(S(N)(=O)=O)cc1)Cc1ccccc1         pKi              =        5.46
 5  COc1cc(/C=C/C(=O)OCCCCO[N+](=O)[O-])ccc1OC(=O)c1ccc(S(=O)(=O)Nc2nnc(S(N)(=O)=O)s2)cc1         pKi              =        7.42
 6  NS(=O)(=O)c1ccc(CCNC(=O)CN2C(=O)NC3(CCCCC3)C2=O)cc1         pKi              =        5.10
 7  CC(=O)O[C@H]1[C@@H](OC(C)=O)[C@@H](CO)O[C@@H]([Se]c2ccc(S(N)(=O)=O)cc2)[C@@H]1OC(C)=O         pKi              =        6.83
 8                  O=C(O)c1c(F)c(F)cc(F)c1F         pKi              =        4.13
 9            Oc1ccc(/C=C/c2cc(O)cc(O)c2)cc1         pKi              =        5.35
10                        NCCNc1cccc2ccccc12         pKi              =        7.24
11  CC(=O)O[C@@H]1[C@@H](OC(C)=O)[C@H]([Se]c2ccc(S(N)(=O)=O)cc2)O[C@H](CO)[C@H]1OC(C)=O         pKi              =        7.17
12  NS(=O)(=O)c1ccc(COC(=O)CN(CCN(CCN(CC(=O)O)CC(=O)O)CC(=O)O)CC(=O)O)cc1         pKi              =        6.58
13                   Nc1ccc(S(N)(=O)=O)cc1Cl         pKi              =        6.35
14  COc1cc(/C=C/C(=O)OCCCCO[N+](=O)[O-])ccc1OC(=O)c1cccc(S(=O)(=O)Nc2nnc(S(N)(=O)=O)s2)c1         pKi              =        6.65
15                         O=C(O)c1ccc(O)cc1         pKi              =        3.09
16  CC(=O)OC[C@H]1O[C@@H]([Se]c2ccc(S(N)(=O)=O)cc2)[C@H](OC(C)=O)[C@@H](OC(C)=O)[C@H]1OC(C)=O         pKi              =        6.46
17  NS(=O)(=O)c1ccc(CCN(Cc2ccc3ccccc3c2)C(=O)CN(CCC(=O)O)CCc2ccccc2)cc1         pKi              =        6.17
18  CCN(CC)CCC(=O)N(CCc1ccc(S(N)(=O)=O)cc1)Cc1ccccc1         pKi              =        5.41
19  CC(C)(C)OC(=O)N(CCCN(CCNC(=O)C(F)(F)F)C(=O)OC(C)(C)C)CCNC(=O)C(F)(F)F         pKi              =        3.51
20                             Oc1cc(F)ccc1F         pKi              =        3.37
21         NS(=O)(=O)c1ccc(CCNCCc2ccccc2)cc1         pKi              =        5.45
22  CC(=O)/C(=N\Nc1ccc(F)cc1)C(=O)Nc1ccc(S(N)(=O)=O)cc1         pKi              <        5.00
23  CC(=O)O[C@H]1[C@@H](OC(C)=O)[C@@H](CO)O[C@@H]([Se]c2ccc(S(N)(=O)=O)c(N)c2)[C@@H]1OC(C)=O         pKi              =        5.14
24  CCOC(=O)N1CCN(C(=S)SCC(=O)Nc2nc3ccc(S(N)(=O)=O)cc3s2)CC1         pKi              <        5.00
25  CC(=O)/C(=N\Nc1ccc(C#N)cc1)C(=O)Nc1ccc(S(N)(=O)=O)cc1         pKi              <        5.00

---

Ki for Carbonic anhydrase 4 (Homo sapiens) - collated from the literature.
observable: Ki (µM)

> print(dat)
                                        smi                           targetdesc  assayvalue
1  CC(=O)OC[C@H]1O[C@@H]([Se]c2ccc(NC(=S)Nc3ccc(S(N)(=O)=O)cc3)cc2)[C@H](OC(C)=O)[C@@H](OC(C)=O)[C@H]1OC(C)=O  Carbonic anhydrase 4 (Homo sapiens)       0.362
2   O=C1C=CC[C@H](C[C@H](F)CCc2ccc(O)cc2)O1  Carbonic anhydrase 4 (Homo sapiens)        5.36
3              CCOC(=O)c1cc2ccc(OC)cc2oc1=O  Carbonic anhydrase 4 (Homo sapiens)         7.2
4                      COc1ccc2ccc(=O)oc2c1  Carbonic anhydrase 4 (Homo sapiens)         7.8
5  NS(=O)(=O)c1nc2ccc(OC(=O)CN(CCN(CCN(CC(=O)O)CC(=O)O)CC(=O)O)CC(=O)O)cc2s1  Carbonic anhydrase 4 (Homo sapiens)       0.006
6  NS(=O)(=O)c1nnc(NC(=O)CN(CCN(CCN(CC(=O)O)CC(=O)Nc2nnc(S(N)(=O)=O)s2)CC(=O)[O-])CC(=O)[O-])s1.[Zn+2]  Carbonic anhydrase 4 (Homo sapiens)       0.004
7  NS(=O)(=O)c1ccc(NNC(=O)CN(CCN(CCN(CC(=O)O)CC(=O)O)CC(=O)O)CC(=O)O)cc1  Carbonic anhydrase 4 (Homo sapiens)        0.63

---

Ki for Carbonic anhydrase 4 (Homo sapiens, UniProt P22748) - collated from the literature.
observable: Ki

> print(dat)
                                        smi  assayvalue
1  CC(=O)/C(=N\Nc1ccccc1)C(=O)Nc1ccc(S(N)(=O)=O)cc1     > 10 µM
2  NS(=O)(=O)c1ccc2nc(NC(=O)CSC(=S)N3CCN(c4ccccc4)CC3)sc2c1     > 10 µM
3  CC(=O)n1cc(/C=C2/N=C(c3ncccn3)N(c3ccc(S(N)(=O)=O)cc3)C2=O)c2ccccc21     > 10 µM

---

pKi: −log10 of the molar value.
pKi for Carbonic anhydrase 4 (Homo sapiens, UniProt P22748) - collated from the literature.
observable: pKi

> print(dat)
                                         smi  observable  censoringsign  assayvalue
 1  NS(=O)(=O)c1ccc(C(=O)OCCCCO[N+](=O)[O-])cc1         pKi              =        7.36
 2  CC(=O)/C(=C\c1ccc(Cl)cc1)C(=O)Nc1ccc(S(N)(=O)=O)cc1         pKi              =        6.84
 3  CC(=O)/C(=C\c1ccccc1)C(=O)Nc1ccc(S(N)(=O)=O)cc1         pKi              =        6.02
 4  NS(=O)(=O)c1ccc(CCNC(=O)CN(CCN(CCN(CC(=O)O)CC(=O)NCCc2ccc(S(N)(=O)=O)cc2)CC(=O)O)CC(=O)O)cc1         pKi              =        7.60
 5      O=C(NCCNCCNCCNC(=O)C(F)(F)F)C(F)(F)F         pKi              <        3.30
 6  NS(=O)(=O)c1ccccc1NC(=O)CN(CCN(CCN(CC(=O)O)CC(=O)Nc1ccccc1S(N)(=O)=O)CC(=O)O)CC(=O)O         pKi              =        6.48
 7      NS(=O)(=O)c1ccc2[nH]c(-c3cscn3)nc2c1         pKi              =        7.31
 8  Oc1cc(O)c2c(c1)O[C@H](c1ccc(O)c(O)c1)[C@@H](O)C2         pKi              =        5.31
 9  O=C(Nc1ccccc1C(=O)O)c1ccc2c(c1)C(=O)N(c1ccccc1)C2=O         pKi              <        5.00
10  CCCCCCCC/C=C\CCCCCCCCNC(=O)CCN(CCc1ccccc1)CC(=O)N(CCc1ccc(S(N)(=O)=O)cc1)Cc1ccco1         pKi              =        5.74
11               O=C1Nc2c(F)cccc2S(=O)(=O)N1         pKi              =        6.34
12  NS(=O)(=O)c1ccc(C(=O)Nc2ccc([Se][C@@H]3O[C@H](CO)[C@@H](O)[C@H](O)[C@H]3O)cc2)cc1         pKi              =        8.05
13  NS(=O)(=O)c1cccc(NC(=O)CN(CCN(CCN(CC(=O)O)CC(=O)O)CC(=O)O)CC(=O)O)c1         pKi              =        6.30
14             NS(=O)(=O)c1nc2ccc(OCCO)cc2s1         pKi              =        7.82
15  NS(=O)(=O)c1ccc(NC(=O)CSC(=S)N2CCN(Cc3ccccc3)CC2)cc1         pKi              =        5.47
16  NS(=O)(=O)c1ccc(CNC(=O)CN(CCN(CCN(CC(=O)O)CC(=O)NCc2ccc(S(N)(=O)=O)cc2)CC(=O)O)CC(=O)O)cc1         pKi              =        7.68
17  NS(=O)(=O)c1ccc(NC(=O)CSC(=S)N2CCN(c3ccc(F)c(Cl)c3)CC2)cc1         pKi              =        5.61
18  NS(=O)(=O)c1cc(C(=O)Nc2ccc([Se][C@@H]3O[C@H](CO)[C@H](O)[C@H](O)[C@H]3O)cc2)ccc1Cl         pKi              =        7.11
19  CC(=O)NS(=O)(=O)c1ccc(N2C(=O)/C(=C\c3cn(C(C)=O)c4ccccc34)N=C2c2ccccc2)cc1         pKi              <        5.00
20  Cc1ccc(-c2cc(C(F)(F)F)nn2-c2ccc(S(N)(=O)=O)cc2)cc1         pKi              =        6.06
21                                NCCCCNCCCN         pKi              =        6.95
22          NS(=O)(=O)c1ccc(CCNCc2ccccc2)cc1         pKi              =        5.54
23  CC(=O)/C(=N\Nc1ccc(Cl)cc1)C(=O)Nc1ccc(S(N)(=O)=O)cc1         pKi              <        5.00
24  CC(=O)/C(=C\c1ccccc1Cl)C(=O)Nc1ccc(S(N)(=O)=O)cc1         pKi              =        6.42
25  NS(=O)(=O)c1ccc2nc(NC(=O)CSC(=S)N3CCCCC3)sc2c1         pKi              =        5.13
26  CC(C)C[C@H](NC(=O)[C@H](Cc1ccccc1)NC(=O)c1cnccn1)B(O)O         pKi              =        5.19
27  NS(=O)(=O)c1nc2ccc(OCCOC(=O)CN(CCN(CCN(CC(=O)O)CC(=O)OCCOc3ccc4nc(S(N)(=O)=O)sc4c3)CC(=O)O)CC(=O)O)cc2s1         pKi              =        8.40
28              O=C1Nc2ccc(Cl)cc2S(=O)(=O)N1         pKi              =        5.76
29  COc1cc(NC(=O)c2ccc3c(c2)C(=O)OC3=O)c(C(=O)O)cc1OC         pKi              <        5.00
30  CCN(CCC(=O)N(CCc1ccc(S(N)(=O)=O)cc1)Cc1ccccc1)Cc1ccccc1         pKi              <        5.00
